Values from patent US20060241051A1

Molecular target: human OT7T175 (metastin receptor) (human, UniProt Q969F8 1-398)
Sequence (Q969F8 whole entry L364H): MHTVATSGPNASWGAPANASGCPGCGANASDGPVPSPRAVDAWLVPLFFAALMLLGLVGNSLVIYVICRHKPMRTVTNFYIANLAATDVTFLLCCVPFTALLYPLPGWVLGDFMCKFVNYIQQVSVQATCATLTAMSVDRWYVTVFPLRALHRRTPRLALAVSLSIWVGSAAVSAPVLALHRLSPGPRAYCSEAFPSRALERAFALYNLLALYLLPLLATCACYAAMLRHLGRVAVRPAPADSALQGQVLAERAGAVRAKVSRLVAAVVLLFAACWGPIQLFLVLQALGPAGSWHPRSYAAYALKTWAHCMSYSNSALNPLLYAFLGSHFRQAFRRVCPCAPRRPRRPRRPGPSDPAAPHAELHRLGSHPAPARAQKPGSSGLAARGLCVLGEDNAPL
Test: cell-based or functional assay
Ends that are not written are not given here. * marks the point of attachment. Propanoyl(3-indol-3-yl) = O=C(CCc1c[nH]c2ccccc12)*; Fmoc = O=C(OCC1c2ccccc2-c2ccccc21)*
Quantity name: intracellular Ca ion level-increasing activity (FLIPR)

binder="Fmoc-NSFGLRF-NH2 [Compound No. 53: des(1-3)-Fmoc-MS10]" recorded_result="1 specific activity to metastin (1-54)"
binder="YNWNSFGXRF (Nle8; C-terminal amide) [Compound No. 105: [Nle8]MS10]" recorded_result="1 specific activity to metastin (1-54)"
binder="{Propanoyl(3-indol-3-yl)}-NSFGLRF-NH2 (SMILES CC(C)C[C@H](NC(=O)CNC(=O)[C@H](Cc1ccccc1)NC(=O)[C@H](CO)NC(=O)[C@H](CC(N)=O)NC(=O)CCc1c[nH]c2ccccc12)C(=O)N[C@@H](CCCNC(=N)N)C(=O)N[C@@H](Cc1ccccc1)C(N)=O) [Compound No. 114: des(1-3)-3-(3-Indolyl)propionyl-MS10]" recorded_result="3 specific activity to metastin (1-54)"
binder="YNWNSFALRF-NH2 [Compound No. 50: [Ala7]MS10]" recorded_result="30 specific activity to metastin (1-54)"
binder="YNWNLFGLRF-NH2 [Compound No. 24: [Leu5]MS10]" recorded_result="1 specific activity to metastin (1-54)"
binder="YNWNSFSLRF-NH2 [Compound No. 101: [Ser7]MS10]" recorded_result="10 specific activity to metastin (1-54)"
